TEST SUMMARY: qHTS assay to identify small molecule antagonists of the thyroid receptor (TR) signaling pathway - cell viability counter screen (AID 743064); note: % is set by controls: 0 for no effect and ±100 for the full control effect; nearly all actives have a fitted effect of over 50% in size
CONDITION INFO: GH3.TRE-Luc viability, CellTiter-Fluor, 24 h; series mostly up to 70.3 µM
Results filed as inconclusive are left out. Active and inactive are the calls of the source. Calls come from the whole dose curve; as a rule, active = well fitted cell-killing curve with a large enough effect in the repeat runs; inconclusive = weak or mixed curves, or effect the other way; inactive = no such curve, though single readings can be large or run the other way.
I would appreciate it if you answered using one of these outcomes: active, inactive

Record request — test call for CC(=O)CC(=O)Nc1ccc(C)cc1C
inactive

Which outcome was assigned to CC(=O)Nc1ccc(OC(=O)c2ccccc2OC(C)=O)cc1 in this test?
inactive

For this compound, state the assay outcome: N#Cc1ccccc1O
inactive

Which result was noted for this compound in the test: CCn1cc(C(=O)O)c(=O)c2cnc(N3CCCC3)nc21
inactive

Assay outcome for C=C(C)c1cccc(C(C)(C)N=C=O)c1 : what was it?
inactive

# lookup: test call for OC[C@H]1O[C@@H](O[C@@H]2[C@@H](CO)O[C@](O)(CO)[C@H]2O)[C@H](O)[C@@H](O)[C@H]1O
inactive

Per the records of this test, what outcome belongs to CC(=O)O[Si](C)(OC(C)=O)OC(C)=O ?
inactive

Called result for Cc1cccc(Cl)c1
inactive

Record request — test call for C=CC/C=C/C
inactive

Entry COS(=O)(=O)O : call = ?
inactive

Hi, do you know how CC(C)COC(=O)c1ccccc1 came out in this test?
inactive

Hey, what did the test say about OCC1(CO)COCOC1 ?
inactive

Outcome logged for OC1OCCOC1O (stereo unspecified) in this assay:
inactive

// param item: CCCCCCCCCCCCCCCCCC#N ; yields the recorded call
inactive

Called result for COc1nc(N)nc2nc[nH]c12
inactive

Dear colleague, could you share the recorded outcome for CCCCCCCCCCCCCCC(=O)NC(CO)CCCCCCCCCCCCCC (stereo unspecified) when you have a moment?
inactive

Just curious, what result did CCC(=O)CC get here?
inactive

Tell me the assay call for CC(C)=CCC[C@@](C)(O)[C@H]1CC=C(C)CC1 please.
inactive

Test call, this compound: C=C(C)[C@@H]1CC=C(C)C(=O)C1
inactive

Test call, this compound: OCCN1CCOCC1
inactive

----------
TEST SUMMARY: A CellTox Green Cytotoxicity Assay to monitor cytotoxicity in HepG2 cells - 8 hour (AID 1224890); note: % is set by controls: 0 for no effect and ±100 for the full control effect; nearly all actives have a fitted effect of over 45% in size
CONDITION INFO: CellTox Green fluorescence; series mostly up to 76.8 µM
Inconclusive results are not listed. Activity calls are given as the source filed them. Calls follow the shape of the dose curve; as a rule, active = well fitted activation curve with a large enough effect in the repeat runs; inconclusive = weak or mixed curves; inactive = flat fitted curve, though single readings scatter.

SMILES NOTATION | cytotoxicity increase
CCCCCCCCCOC(=O)c1ccccc1C(=O)OCCCCCCCCC | inactive
c1ccc2cnccc2c1 | inactive
C[Si]1(C)O[Si](C)(C)O[Si](C)(C)O[Si](C)(C)O[Si](C)(C)O1 | inactive

----------
TEST SUMMARY: qHTS assay to test for compound auto fluorescence at 460 nm (blue) in HEK293 cells (AID 720678); note: % is set by controls: 0 for no effect and ±100 for the full control effect
CONDITION INFO: blue autofluorescence 405/460 nm; series mostly up to 91.3 µM
Calls of active or inactive are those of the source. Calls follow the shape of the dose curve; as a rule, active = well fitted curve in the direction sought with a large enough effect in the repeat runs; inconclusive = weak or mixed curves; inactive = flat fitted curve, though single readings scatter.
MEASURE NAME: fluorescence, % of triamterene

Before answering, review these 5 worked examples.
COMPOUND | MEASURE NAME | MEAS VALUE
CC(C)c1ccc(C=O)cc1 | fluorescence, % of triamterene | inactive
OCC(O)CN1CCN(c2ccccc2)CC1 (stereo not drawn) | fluorescence, % of triamterene | inactive
Cc1c(NC(=O)c2cccnc2)c(=O)n(-c2ccccc2)n1C | fluorescence, % of triamterene | -0.0133% [at 18.6 µM] (inactive)
CC/C=C\CCOC(=O)c1ccccc1O | fluorescence, % of triamterene | inactive
O=NN(CCCl)C(=O)NC1CCCCC1 | fluorescence, % of triamterene | inactive

# return recorded fluorescence, % of triamterene for input O=C(CN1CCNCC1)NC1CCCCC1
inactive

Report measured fluorescence, % of triamterene; entry is O=S(=O)(O)c1ccc2c(N=Nc3ccc(S(=O)(=O)O)c4ccccc34)c(O)c(S(=O)(=O)O)cc2c1
inactive

Look up and state reported fluorescence, % of triamterene for C[Si]1(C)O[Si](C)(C)O[Si](C)(C)O[Si](C)(C)O[Si](C)(C)O1
inactive
